# TARGET OR TEST SYSTEM: DNA (cytosine-5)-methyltransferase 1 (Homo sapiens) (UniProt P26358)
# Sequence (P26358 504-1616 limits assumed): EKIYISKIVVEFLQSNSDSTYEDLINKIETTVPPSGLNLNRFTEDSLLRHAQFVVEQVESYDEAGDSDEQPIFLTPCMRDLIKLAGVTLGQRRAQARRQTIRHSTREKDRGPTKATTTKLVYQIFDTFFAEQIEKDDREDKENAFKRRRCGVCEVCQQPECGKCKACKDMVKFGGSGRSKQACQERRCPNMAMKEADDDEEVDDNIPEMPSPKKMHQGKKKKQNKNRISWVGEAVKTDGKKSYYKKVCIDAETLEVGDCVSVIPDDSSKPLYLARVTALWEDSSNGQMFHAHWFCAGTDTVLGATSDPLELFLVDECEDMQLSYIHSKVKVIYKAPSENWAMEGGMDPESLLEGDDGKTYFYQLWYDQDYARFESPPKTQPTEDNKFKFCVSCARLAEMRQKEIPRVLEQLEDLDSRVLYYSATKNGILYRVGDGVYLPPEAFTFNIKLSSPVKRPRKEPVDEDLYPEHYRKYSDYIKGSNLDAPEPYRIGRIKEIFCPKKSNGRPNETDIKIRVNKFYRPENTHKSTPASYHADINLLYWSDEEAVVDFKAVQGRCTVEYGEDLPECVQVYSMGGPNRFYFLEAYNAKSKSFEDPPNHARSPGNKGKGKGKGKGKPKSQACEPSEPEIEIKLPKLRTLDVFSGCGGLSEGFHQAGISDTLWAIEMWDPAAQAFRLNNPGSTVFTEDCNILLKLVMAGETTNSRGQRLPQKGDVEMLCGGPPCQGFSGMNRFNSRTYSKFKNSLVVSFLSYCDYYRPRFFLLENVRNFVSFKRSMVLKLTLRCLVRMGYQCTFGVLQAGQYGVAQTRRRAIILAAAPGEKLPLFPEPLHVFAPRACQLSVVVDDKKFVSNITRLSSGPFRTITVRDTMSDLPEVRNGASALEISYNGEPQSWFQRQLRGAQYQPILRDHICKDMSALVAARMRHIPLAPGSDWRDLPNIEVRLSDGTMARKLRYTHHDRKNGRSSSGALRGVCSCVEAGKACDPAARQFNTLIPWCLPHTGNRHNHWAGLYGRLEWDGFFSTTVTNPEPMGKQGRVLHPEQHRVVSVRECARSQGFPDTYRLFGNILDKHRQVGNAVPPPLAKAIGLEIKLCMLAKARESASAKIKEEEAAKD
# METHOD: inhibition of DNA methyltransferase DNMT1 – biochemical, molecular beacon, fluorescence, HinP1I cleavage, uHTS, primary screen (AID 588458)
# STATED CONDITIONS: at 10 µM
Hit rate of the full screen: of about 360,000 compounds, about 3,000 (0.83%) were called active. No stated cut-off is given here; in the data, active means inhibition above about 50%; inactive means the rest. The sample holds actives, similar compounds and a random draw of the others, so the mix is not that of the screen.
Thanks in advance; please answer with one of these: active, inactive

See these solved cases before continuing.
>>> class_name("COC(=O)CC(=O)N1CCN(c2ccc(Cl)c(Cl)c2)CC1")
"inactive"
>>> class_name("c1ccc(CSc2nnc(-c3ccco3)c(-c3ccco3)n2)cc1")
"active"
>>> class_name("O=C(Nc1nc(-c2ccco2)c(-c2ccco2)s1)c1ccco1")
"active"
>>> class_name("CC(C)CC(CCc1ccccc1)OS(N)(=O)=O (stereo not given)")
"inactive"

Query: What is the recorded call for this compound in the test? COc1cc(C2C(N3C(=O)c4ccccc4C3=O)C(=O)N2c2ccc(C)c(C)c2)cc(OC)c1OC (stereo not given)
Result: inactive

Query: Which outcome did this test record for the compound COc1ccc(S(=O)(=O)N2CCOC2CNC(=O)C(=O)NCc2ccncc2)cc1OC (stereo not given) ?
Result: inactive

Each recorded value in this set is attributed to PubChem BioAssay AID588458.
